- targetUnderTest: rat B1R (bradykinin receptor 1) (Rattus norvegicus, UniProt P97583)
- Construct: expressed in transfected cells; host or cells: CHO K1 cells
- Sequence (P97583 whole entry): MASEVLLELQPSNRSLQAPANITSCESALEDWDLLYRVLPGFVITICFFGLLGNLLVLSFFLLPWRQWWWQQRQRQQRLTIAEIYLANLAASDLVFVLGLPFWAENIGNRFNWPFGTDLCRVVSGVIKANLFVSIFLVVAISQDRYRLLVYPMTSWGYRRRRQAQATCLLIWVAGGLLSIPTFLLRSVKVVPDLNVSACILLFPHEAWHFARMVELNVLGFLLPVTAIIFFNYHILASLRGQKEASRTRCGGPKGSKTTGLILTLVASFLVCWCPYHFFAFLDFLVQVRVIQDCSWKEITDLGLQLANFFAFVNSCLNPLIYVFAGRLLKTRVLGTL
- test: FLIPR Ca2+ assay (Fluo-4) on CHO K1 cells stably transfected with the B1R gene of the rat (rB1R cells): % inhibition at 10 μM / IC50, agonist Des-Arg9-bradykinin
- Assay type: cell-based
- conditionParameters: CHO-K1, rat B1R
reportedEndpoint: inhibition at 10 µM (%)
Express your answer in %, writing the number without its unit.

*Q* Item O=C(c1ccc2c(c1)C(N(C(=O)c1ccccc1Cl)C1CC1)CC2)N1CCC2(CCN(Cc3ccc(F)cc3F)CC2)C1 (stereo not shown) [IND_CC-523] has what recorded inhibition at 10 µM?
*A* 68

*Q* Entry CC1(C)CC(NS(=O)(=O)Cc2ccccc2C(F)(F)F)c2cc(C(=O)N3CCC4(CC3)CCN(c3ccncc3)CC4)ccc21 (stereo not shown) [IND_CC-256] has what inhibition at 10 µM?
*A* 100

*Q* What value of inhibition at 10 µM has been recorded for this entry: CC1(C)Cc2ccc(C(=O)N3CCC4(CC3)CCN(c3ccncc3)CC4)cc2C1NC(=O)c1ccccc1C(F)(F)F (stereo not shown) [Ind_CC-064]
*A* 101

*Q* Need inhibition at 10 µM, item O=C(NC1CCc2ccc(C(=O)N3CCC4(CCN(Cc5csnn5)CC4)CC3)cc21)c1cc(Cl)ccc1F (stereo not shown) [IND_CC-652]
*A* 53

*Q* What does the data say about its inhibition at 10 µM? Entry: COc1cc(C)c(S(=O)(=O)N[C@@H]2CCCc3ccc(C(=O)N4CCC5(CCN(c6ccncc6)CC5)C4)cc32)c(C)c1 [Example H-16]
*A* 102

*Q* Form field: reported inhibition at 10 µM of Cc1cc(OC(F)(F)F)ccc1C(=O)NC1CCc2ccc(C(=O)N3CCC4(CC3)CCN(c3ccncc3)CC4)cc21 (stereo not shown) [IND_CC-300]
*A* 65

*Q* // lookup inhibition at 10 µM for CC1(C)CC(NS(=O)(=O)c2ccccc2Cl)c2cc(C(=O)N3CCC4(CC3)CCN(c3ccncc3)CC4)ccc21 (stereo not shown) [IND_CC-337]
*A* 104

Source listed as patent US8455475B2.
